# ASSAYED_SYSTEM: Tyrosine-protein phosphatase non-receptor type 1 (Homo sapiens, UniProt P18031)
# Sequence (P18031 whole entry): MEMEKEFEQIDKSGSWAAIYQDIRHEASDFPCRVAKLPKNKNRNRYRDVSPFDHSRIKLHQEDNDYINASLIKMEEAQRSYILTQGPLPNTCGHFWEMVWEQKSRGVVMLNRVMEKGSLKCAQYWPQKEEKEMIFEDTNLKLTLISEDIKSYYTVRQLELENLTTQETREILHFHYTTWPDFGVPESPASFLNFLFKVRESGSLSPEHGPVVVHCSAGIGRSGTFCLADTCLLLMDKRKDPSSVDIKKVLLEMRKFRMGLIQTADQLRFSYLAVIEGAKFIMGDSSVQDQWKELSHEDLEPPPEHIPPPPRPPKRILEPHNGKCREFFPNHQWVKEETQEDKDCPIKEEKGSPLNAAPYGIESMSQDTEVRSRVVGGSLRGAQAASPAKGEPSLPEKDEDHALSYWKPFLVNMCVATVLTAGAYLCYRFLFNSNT
RESULT_TYPE: Ki (nM)

{"SMILES_NOTATION": "CC(=O)Nc1ccc(-c2sc(C(=O)O)c(OCC(=O)O)c2Br)cc1", "Ki (nM)": 500}
{"SMILES_NOTATION": "CS(=O)(=O)Nc1ccc(-c2sc(C(=O)O)c(OCC(=O)O)c2Br)cc1", "Ki (nM)": 740}

[a] O=C(O)COc1c(C(=O)O)sc(Br)c1Br
[b] O=C(O)COc1c(C(=O)O)sc(-c2ccc(NC(=O)c3ccccc3)cc2)c1Br
[c] CC(C)NC(=O)Nc1ccc(-c2sc(C(=O)O)c(OCC(=O)O)c2Br)cc1
Ask: List from greatest to least Ki. Please write the labels in the order that was asked for.
Reply: a, b, c
(a: 18000 nM, b: 600 nM, c: 360 nM)

Origin of measurements: ChEMBL document CHEMBL1149477
